molecular target: T1, PSMA Fab (biotinylated (site not stated)); test: phage ELISA, captured anti-PSMA Fab pre-incubated with PSMA antigen as competitor, anti-M13 HRP detection
T1 construct: Biotinylated PSMA Fab captured on neutravidin coated plates in the phage ELISA; also called Anti-PSMA Fab; 006 PSMA Fab
Where no end group is shown, it is not given here.
Observed property: Phage binding ELISA signal, Anti-PSMA Fab in presence of PSMA antigen
Kindly provide the number alone.

[in] Indicate the recorded Phage binding ELISA signal, Anti-PSMA Fab in presence of PSMA antigen value for this binder: VYPLCKPSWMCSGL (cysteine pairing not given here; also: peptide displayed as fusion to phage pIII, Clonal phage of the peptide-180 optimisation library, tested as crude phage supernatant; not shown: bacteriophage pIII coat protein to which the peptide is fused for display) [Phage-2970]
[out] 0.0843

[in] Determine its reported Phage binding ELISA signal, Anti-PSMA Fab in presence of PSMA antigen: VQSLCVPYWMCTGF (cysteine pairing not given here; also: peptide displayed as fusion to phage pIII, Clonal phage of the peptide-180 optimisation library, tested as crude phage supernatant; not shown: bacteriophage pIII coat protein to which the peptide is fused for display) [Phage-2962]
[out] 0.102

[in] # return recorded Phage binding ELISA signal, Anti-PSMA Fab in presence of PSMA antigen for input NLPLCKPAWMCKWL (cysteine pairing not given here; also: peptide displayed as fusion to phage pIII, Clonal phage of the peptide-180 optimisation library, tested as crude phage supernatant; not shown: bacteriophage pIII coat protein to which the peptide is fused for display) [Phage-2963]
[out] 0.125

[in] Answer with the recorded Phage binding ELISA signal, Anti-PSMA Fab in presence of PSMA antigen for the binder listed here: DIPICRPQWMCIGF (cysteine pairing not given here; also: peptide displayed as fusion to phage pIII, Clonal phage of the peptide-180 optimisation library, tested as crude phage supernatant; not shown: bacteriophage pIII coat protein to which the peptide is fused for display) [Phage-2971]
[out] 0.0617

[in] Give the reported Phage binding ELISA signal, Anti-PSMA Fab in presence of PSMA antigen for this binder. VGAACIPDWMCVGF (cysteine pairing not given here; also: peptide displayed as fusion to phage pIII, Clonal phage of the peptide-180 optimisation library, tested as crude phage supernatant; not shown: bacteriophage pIII coat protein to which the peptide is fused for display) [Phage-2974]
[out] 0.0732

[in] For the binder WEAMCQPLWMCTGF (cysteine pairing not given here; also: peptide displayed as fusion to phage pIII, Clonal phage of the peptide-180 optimisation library, tested as crude phage supernatant; not shown: bacteriophage pIII coat protein to which the peptide is fused for display) [Phage-2968] , report Phage binding ELISA signal, Anti-PSMA Fab in presence of PSMA antigen.
[out] 0.0968

[in] Provide one value: measured Phage binding ELISA signal, Anti-PSMA Fab in presence of PSMA antigen of GERYCVPAWMCAGL (cysteine pairing not given here; also: peptide displayed as fusion to phage pIII, Clonal phage of the peptide-180 optimisation library, tested as crude phage supernatant; not shown: bacteriophage pIII coat protein to which the peptide is fused for display) [Phage-2967]
[out] 0.106

[in] Specify measured Phage binding ELISA signal, Anti-PSMA Fab in presence of PSMA antigen for LDIWCVPAWMCHGF (cysteine pairing not given here; also: peptide displayed as fusion to phage pIII, Clonal phage of the peptide-180 optimisation library, tested as crude phage supernatant; not shown: bacteriophage pIII coat protein to which the peptide is fused for display) [Phage-2969] .
[out] 0.0712
